assay: Cytotoxicity evaluation (Cell Titer 96 AQueous One Solution Cell Proliferation Assay); assay type: cell-based; details: human; GS4.1 cells, cellular viability
measuredAttribute: CC50

>  <compound>
COc1ccc2c(O[C@H]3C[C@H]4C(=O)N(C)CCCC/C=C\[C@@H]5C[C@@]5(C(=O)NS(=O)(=O)C5(C)CC5)NC(=O)N4C3)cc(-c3nc(C(C)C)cs3)nc2c1Cl [Compound 56d]

>  <measuredAttribute>
CC50

>  <observedValue>
> 75 µM

$$$$
>  <compound>
COc1ccc2c(O[C@H]3C[C@H]4C(=O)N(C)CCCC/C=C\[C@@H]5C[C@@]5(C(=O)NS(=O)(=O)C5(C)CC5)NC(=O)N4C3)cc(-c3csc(C(F)(F)F)n3)nc2c1C

>  <measuredAttribute>
CC50

>  <observedValue>
> 75 µM

$$$$
>  <compound>
COc1ccc2c(O[C@H]3C[C@H]4C(=O)N(C)CCCC/C=C\[C@@H]5C[C@@]5(C(=O)NS(=O)(=O)C5(C)CC5)NC(=O)N4C3)cc(-c3nc(C(F)(F)F)cs3)nc2c1Cl [Compound 68d]

>  <measuredAttribute>
CC50

>  <observedValue>
> 75 µM

$$$$

---

experiment: Cytotoxicity evaluation (Cell Titer 96 AQueous One Solution Cell Proliferation Assay); type: cell-based; conditions: human; GS4.1 cells, cellular viability
measuredAttribute: CC50

>  <compound>
COc1ccc2c(O[C@H]3C[C@H]4C(=O)N(C)CCCC/C=C\[C@@H]5C[C@@]5(C(=O)NS(=O)(=O)C5CC5)NC(=O)N4C3)cc(-c3csc(C(F)(F)F)n3)nc2c1C

>  <observedValue>
10 to 75 µM

$$$$
>  <compound>
COc1ccc2c(O[C@H]3C[C@H]4C(=O)N(C)CCCC/C=C\[C@@H]5C[C@@]5(C(=O)NS(=O)(=O)C5(C)CC5)NC(=O)N4C3)cc(-c3nc(C(C)C)cs3)nc2c1C [Compound 56b]

>  <observedValue>
> 75 µM

$$$$
>  <compound>
COc1ccc2c(O[C@H]3C[C@H]4C(=O)N(C)CCCC/C=C\[C@@H]5C[C@@]5(C(=O)NS(=O)(=O)C5CC5)NC(=O)N4C3)cc(-n3ccc(C(F)(F)F)n3)nc2c1C [Compound 91g]

>  <observedValue>
> 75 µM

$$$$
>  <compound>
COc1ccc2c(O[C@H]3C[C@H]4C(=O)N(C)CCCC/C=C\[C@@H]5C[C@@]5(C(=O)NS(=O)(=O)C5(C)CC5)NC(=O)N4C3)nc(-c3nc(C(C)C)cs3)nc2c1Cl [Compound 110d]

>  <observedValue>
> 75 µM

$$$$
>  <compound>
COc1ccc2c(O[C@H]3C[C@H]4C(=O)N(C)CCCC/C=C\[C@@H]5C[C@@]5(C(=O)NS(=O)(=O)C5(C)CC5)NC(=O)N4C3)cc(-n3ccc(C(F)(F)F)n3)nc2c1Cl [Compound 91a]

>  <observedValue>
> 75 µM

$$$$
>  <compound>
COc1ccc2c(O[C@H]3C[C@H]4C(=O)N(C)CCCC/C=C\[C@@H]5C[C@@]5(C(=O)NS(=O)(=O)C5(C)CC5)NC(=O)N4C3)cc(-c3nc(C(C)C)cs3)nc2c1Br [Compound 56h]

>  <observedValue>
> 75 µM

$$$$
>  <compound>
COc1ccc2c(O[C@H]3C[C@H]4C(=O)N(C)CCCC/C=C\[C@@H]5C[C@@]5(C(=O)NS(=O)(=O)C5CC5)NC(=O)N4C3)cc(-c3nc(C(F)(F)F)cs3)nc2c1Cl [Compound 69d]

>  <observedValue>
10 to 75 µM

$$$$

---

Assay: Cytotoxicity evaluation (Cell Titer 96 AQueous One Solution Cell Proliferation Assay)
Format: cell-based
Conditions: human; GS4.1 cells, cellular viability
Experimental: For cytotoxicity evaluation, GS4.1 cells were treated with compounds as described above and cellular viability was monitored using the Cell Titer 96 AQueous One Solution Cell Proliferation Assay (Promega). CC50 values were determined from the % cytotoxicity versus concentration data with Tecan Magellan software as described above.

>  <compound>
COc1ccc2c(O[C@H]3C[C@H]4C(=O)N(C)CCCC/C=C\[C@@H]5C[C@@]5(C(=O)NS(=O)(=O)C5CC5)NC(=O)N4C3)cc(-c3nc(C(C)C)cs3)nc2c1Cl [Compound 62d]

>  <CC50>
> 75 µM

$$$$
>  <compound>
COc1ccc2c(O[C@H]3C[C@H]4C(=O)N(C)CCCC/C=C\[C@@H]5C[C@@]5(C(=O)NS(=O)(=O)C5(C)CC5)NC(=O)N4C3)cc(-c3nc(C(C)C)cs3)nc2c1F [Compound 56c]

>  <CC50>
> 75 µM

$$$$
>  <compound>
COc1ccc2c(O[C@H]3C[C@H]4C(=O)N(C)CCCC/C=C\[C@@H]5C[C@@]5(C(=O)NS(=O)(=O)C5(C)CC5)NC(=O)N4C3)cc(-c3nc(C(F)(F)F)cs3)nc2c1C [Compound 68b]

>  <CC50>
> 75 µM

$$$$
>  <compound>
COc1cc(OC)c2c(O[C@H]3C[C@H]4C(=O)N(C)CCCC/C=C\[C@@H]5C[C@@]5(C(=O)NS(=O)(=O)C5(C)CC5)NC(=O)N4C3)cc(-c3nc(C(C)C)cs3)nc2c1 [Compound 56e]

>  <CC50>
> 75 µM

$$$$
>  <compound>
C#Cc1csc(-c2cc(O[C@H]3C[C@H]4C(=O)N(C)CCCC/C=C\[C@@H]5C[C@@]5(C(=O)NS(=O)(=O)C5(C)CC5)NC(=O)N4C3)c3ccc(OC)c(Cl)c3n2)n1 [Compound G2]

>  <CC50>
10 to 75 µM

$$$$

---

Quick reference for CC50 among some molecules
Assay: Cytotoxicity evaluation (Cell Titer 96 AQueous One Solution Cell Proliferation Assay)
Assay type: cell-based
Conditions: human; GS4.1 cells, cellular viability
Description: For cytotoxicity evaluation, GS4.1 cells were treated with compounds as described above and cellular viability was monitored using the Cell Titer 96 AQueous One Solution Cell Proliferation Assay (Promega). CC50 values were determined from the % cytotoxicity versus concentration data with Tecan Magellan software as described above.

>  <molecule>
COc1ccc2c(O[C@H]3C[C@H]4C(=O)N(C)CCCC/C=C\[C@@H]5C[C@@]5(C(=O)NS(=O)(=O)C5(C)CC5)NC(=O)N4C3)cc(-c3csc(C(C)C)n3)nc2c1Cl [Compound 101d]

>  <CC50>
> 75 µM

$$$$
>  <molecule>
COc1ccc2c(O[C@H]3C[C@H]4C(=O)N(C)CCCC/C=C\[C@@H]5C[C@@]5(C(=O)NS(=O)(=O)C5CC5)NC(=O)N4C3)cc(-n3ccc(C(F)(F)F)n3)nc2c1Cl [Compound 91e]

>  <CC50>
> 75 µM

$$$$
>  <molecule>
COc1ccc2c(O[C@H]3C[C@H]4C(=O)N(C)CCCC/C=C\[C@@H]5C[C@@]5(C(=O)NS(=O)(=O)C5(C)CC5)NC(=O)N4C3)cc(-c3nc(C4CCC4)cs3)nc2c1Cl

>  <CC50>
> 75 µM

$$$$
>  <molecule>
C#Cc1csc(-c2cc(O[C@H]3C[C@H]4C(=O)N(C)CCCC/C=C\[C@@H]5C[C@@]5(C(=O)NS(=O)(=O)C5CC5)NC(=O)N4C3)c3ccc(OC)c(Cl)c3n2)n1

>  <CC50>
10 to 75 µM

$$$$
>  <molecule>
COc1ccc2c(O[C@H]3C[C@H]4C(=O)N(C)CCCC/C=C\[C@@H]5C[C@@]5(C(=O)NS(=O)(=O)C5(C)CC5)NC(=O)N4C3)cc(-c3cc(C(C)C)on3)nc2c1Cl [Compound 96d]

>  <CC50>
> 75 µM

$$$$
>  <molecule>
COc1ccc2c(O[C@H]3C[C@H]4C(=O)N(C)CCCC/C=C\[C@@H]5C[C@@]5(C(=O)NS(=O)(=O)C5(C)CC5)NC(=O)N4C3)cc(-c3csc(C(F)(F)F)n3)nc2c1Cl

>  <CC50>
10 to 75 µM

$$$$
>  <molecule>
COc1cc(C)c2nc(-c3nc(C(C)C)cs3)cc(O[C@H]3C[C@H]4C(=O)N(C)CCCC/C=C\[C@@H]5C[C@@]5(C(=O)NS(=O)(=O)C5CC5)NC(=O)N4C3)c2c1 [Compound 62f]

>  <CC50>
> 75 µM

$$$$
>  <molecule>
C=Cc1csc(-c2cc(O[C@H]3C[C@H]4C(=O)N(C)CCCC/C=C\[C@@H]5C[C@@]5(C(=O)NS(=O)(=O)C5(C)CC5)NC(=O)N4C3)c3ccc(OC)c(Cl)c3n2)n1

>  <CC50>
10 to 75 µM

$$$$
>  <molecule>
COc1ccc2c(O[C@H]3C[C@H]4C(=O)N(C)CCCC/C=C\[C@@H]5C[C@@]5(C(=O)NS(=O)(=O)C5CC5)NC(=O)N4C3)cc(-c3nc(C(C)C)cs3)nc2c1C [Compound 62b]

>  <CC50>
> 75 µM

$$$$
>  <molecule>
C#Cc1csc(-c2cc(O[C@H]3C[C@H]4C(=O)N(C)CCCC/C=C\[C@@H]5C[C@@]5(C(=O)NS(=O)(=O)C5CC5)NC(=O)N4C3)c3ccc(OC)c(C)c3n2)n1

>  <CC50>
10 to 75 µM

$$$$
